Data provenance: ChEMBL document CHEMBL1143513

target-or-test-system: Wee1-like protein kinase (Homo sapiens, UniProt P30291)
Sequence (P30291 whole entry): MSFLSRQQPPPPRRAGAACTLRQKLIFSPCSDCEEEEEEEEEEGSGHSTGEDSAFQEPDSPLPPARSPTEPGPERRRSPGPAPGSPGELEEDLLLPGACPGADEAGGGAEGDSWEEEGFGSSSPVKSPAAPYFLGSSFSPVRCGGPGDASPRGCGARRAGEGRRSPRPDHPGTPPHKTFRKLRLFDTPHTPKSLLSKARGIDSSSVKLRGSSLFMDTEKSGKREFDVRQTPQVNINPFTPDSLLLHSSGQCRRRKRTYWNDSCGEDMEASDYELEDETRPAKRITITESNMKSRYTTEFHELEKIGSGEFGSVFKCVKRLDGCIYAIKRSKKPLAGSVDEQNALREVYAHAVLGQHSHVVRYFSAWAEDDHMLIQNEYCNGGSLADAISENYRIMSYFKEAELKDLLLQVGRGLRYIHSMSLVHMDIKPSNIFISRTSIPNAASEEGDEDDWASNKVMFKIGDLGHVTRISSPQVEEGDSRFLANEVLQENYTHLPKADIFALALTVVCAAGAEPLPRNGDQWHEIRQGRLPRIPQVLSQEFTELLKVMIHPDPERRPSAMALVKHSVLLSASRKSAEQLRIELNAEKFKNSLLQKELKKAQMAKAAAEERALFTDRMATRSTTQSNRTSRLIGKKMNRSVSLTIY
pIC50: −log10 of the molar value.
readout-name: pIC50

a: Cc1c(O)cc(O)c(C)c1-c1cc2cnc(Nc3ccccc3)nc2n(C)c1=O
b: Cc1ccc(Cl)c(-c2cc3cnc(Nc4ccccc4)nc3n(C)c2=O)c1Cl
c: Cn1c(=O)c(-c2c(Cl)cccc2Cl)cc2cnc(Nc3ccc(CCCCC(N)=O)cc3)nc21
d: CCN(CC)CCOc1ccc(Nc2ncc3cc(-c4c(Cl)ccc(O)c4Cl)c(=O)n(C)c3n2)cc1
e: CC(=O)Nc1cc(Cl)c(-c2cc3cnc(Nc4ccccc4)nc3n(C)c2=O)c(Cl)c1
# desc sort on pIC50 across 5 compounds Please, when replying, give the labels in the order that was requested.
d, c, a, e, b
